Test: Protection of MPP+-inhibited cells
Type: cell-based, human
Settings: human
propertyName: viability at 24 h, 1 mM (%)

1. C[n+]1ccc(-c2ccccc2)cc1.[I-] [MPP^+, 1-methyl-4-phenylpyridinium iodide] | 54
